Cited source for all entries: PubChem BioAssay AID2060327

System: PC-3 multi-cell spheroids, viability
procedure-text: Anticancer human tumor PC-3 cell line growth inhibition [IpAb]; active = viability on the fitted dose curve at most 10% of control; inactive = the rest;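 note: spheroids exposed to compounds for 7 days before readout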
reported-conditions: second compound 0.1 µM; first compound 0.316 µM
Description: Combinatorial screen of targeted agents with ipatasertib and abemaciclib in multi-cell type tumor spheroids […] Compounds. […] If the clinical Cmax for an agent had not been determined, the highest concentration tested was 10 microM. NCI60 Cell Culture. […] The optimal seeding densities for each of the cell lines at each time point assessed were determined prior to performing the concentration response studies. […]
Could you please pick one outcome from this set? Y (active), N (inactive)

Recorded results for 2 molecules are shown here.
molecule: Cn1nccc1Nc1nccc(-c2ccn(C(CO)c3ccc(Cl)c(F)c3)c(=O)c2)n1 (stereo not drawn) + CCN1CCN(Cc2ccc(Nc3ncc(F)c(-c4cc(F)c5nc(C)n(C(C)C)c5c4)n3)nc2)CC1
label: N
--
molecule: Cn1ncc(Cl)c1-c1cc(C(=O)NC(CN)Cc2cccc(F)c2)sc1Cl (stereo not drawn) + CCN1CCN(Cc2ccc(Nc3ncc(F)c(-c4cc(F)c5nc(C)n(C(C)C)c5c4)n3)nc2)CC1
label: N

[in] # outcome recorded in this test, key = COc1c(OCCCN2CCOCC2)ccc2c3n(c(=NC(=O)c4cnc(N)nc4)nc12)CCN3 + CC(C)NCC(C(=O)N1CCN(c2ncnc3c2C(C)CC3O)CC1)c1ccc(Cl)cc1
[out] Y
